# Assay Method Text: Clearance in cynomolgus monkey at 1 mg/kg, po and 1 mg/kg, iv
# Format: ADME, organism-based, Macaca fascicularis
# Condition Parameters: in vivo
Endpoint Label: clearance (L/h/kg)

Smiles Data: CC[C@H]1[C@H](/C=C/c2ccc(-c3ccccc3)cn2)[C@@H]2[C@@H](C)OC(=O)[C@]2(O)C[C@@H]1C.Cl
Result Number: 0.198

###

# Assay Method Text: AUC (0 to 24 hrs) in cynomolgus monkey at 1 mg/kg, po
# Assay type: ADME, organism-based, Macaca fascicularis
# Design: time < 24 hr, dose 1 mg/kg, route oral
# Condition Parameters: plasma
Endpoint Label: AUC(0-t) at 24 h (ng·h/mL)

Smiles Data: CC[C@H]1[C@H](/C=C/c2ccc(-c3cccc(F)c3)cn2)[C@@H]2[C@@H](C)OC(=O)[C@]2(O)C[C@@H]1C
Result Number: 4280
